- Assay system: SAMHD1_114-626 (Homo sapiens, UniProt Q9Y3Z3)
- Construct: purified recombinant residues 114-626 (HD domain and C-terminus, SAM domain removed); monomer without nucleotides, tetramer with GTP/dTTP
- Sequence (Q9Y3Z3 114-626): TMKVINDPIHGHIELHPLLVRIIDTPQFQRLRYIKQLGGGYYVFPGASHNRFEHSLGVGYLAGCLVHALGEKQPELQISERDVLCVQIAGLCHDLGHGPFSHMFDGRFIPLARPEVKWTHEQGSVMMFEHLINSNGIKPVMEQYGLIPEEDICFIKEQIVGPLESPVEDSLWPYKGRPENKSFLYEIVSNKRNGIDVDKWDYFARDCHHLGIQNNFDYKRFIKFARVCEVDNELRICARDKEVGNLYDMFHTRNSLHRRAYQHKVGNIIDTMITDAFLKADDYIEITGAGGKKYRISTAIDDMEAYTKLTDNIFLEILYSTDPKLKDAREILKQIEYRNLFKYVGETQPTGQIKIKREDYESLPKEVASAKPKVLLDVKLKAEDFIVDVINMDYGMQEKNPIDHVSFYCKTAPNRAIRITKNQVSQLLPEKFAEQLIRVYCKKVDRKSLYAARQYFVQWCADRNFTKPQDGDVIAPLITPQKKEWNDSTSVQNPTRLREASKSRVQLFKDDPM
- Run description: 1H NMR dTTP hydrolysis rate versus GTP concentration
Measurement label: pEC50
Notebook: values listed as pEC50 are -log10 of the concentration (mol/L).

Challenge: Give pEC50 for Nc1nc2c(ncn2[C@@H]2O[C@H](COP(=O)(O)OP(=O)(O)OP(=O)(O)O)[C@@H](O)[C@H]2O)c(=O)[nH]1 [GTP]
Response given: 5.77
